# TARGET_SYSTEM: Group 3 secretory phospholipase A2 (Homo sapiens, UniProt Q9NZ20)
# Sequence (Q9NZ20 whole entry): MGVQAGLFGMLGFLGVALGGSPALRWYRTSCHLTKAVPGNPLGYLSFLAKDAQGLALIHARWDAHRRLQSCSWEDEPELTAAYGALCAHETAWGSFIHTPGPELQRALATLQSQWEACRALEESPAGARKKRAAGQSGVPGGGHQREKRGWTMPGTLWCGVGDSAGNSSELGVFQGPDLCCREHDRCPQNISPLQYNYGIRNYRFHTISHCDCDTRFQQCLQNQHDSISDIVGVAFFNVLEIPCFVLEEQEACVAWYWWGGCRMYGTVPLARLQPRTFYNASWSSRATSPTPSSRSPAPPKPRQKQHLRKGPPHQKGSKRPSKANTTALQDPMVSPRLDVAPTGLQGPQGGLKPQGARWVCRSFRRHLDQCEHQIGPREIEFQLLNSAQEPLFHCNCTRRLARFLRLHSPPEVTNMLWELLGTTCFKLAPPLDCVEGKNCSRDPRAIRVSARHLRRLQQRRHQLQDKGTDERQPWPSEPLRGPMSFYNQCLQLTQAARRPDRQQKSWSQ
# MEASUREMENT_PROTOCOL: HGIII-sPLA2 enzyme inhibition potency – biochemical, QFRET, IC50, dose response (AID 743457)
PROPERTY_MEASURED: pIC50
One number for each entry, as −log10 of the molar value.

Give me pIC50 for each of these molecules, listed below.
1. Cc1ccc(C(=O)n2c3ccccc3c3ccccc32)cc1
2. COc1cc(/C=C(/C#N)c2nc3ccccc3[nH]2)ccc1OCc1ccc(C(=O)O)o1
3. CCCCn1c(NS(=O)(=O)c2ccccc2)c(C(=O)OCC)c2nc3ccccc3nc21
4. CCN(CC)c1nc2c3c(nc4c(c3c1C#N)CC(=O)N4c1ccc(Cl)cc1)NC(C)=N2

4.52
4.18
4.39
4.60

Required: pIC50, one value per molecule below.
1. COCCN1C(=O)/C(=C/c2c(OC)cc(OC)cc2OC)C(=O)N(c2ccccc2)C1=O
2. Cc1noc(/C=C/N(C)C)c1S(=O)(=O)N1CCCC(C(=O)NCc2ccco2)C1 (stereo not drawn)
3. Cc1n[nH]c(N=Nc2ccc(O)cc2)n1
4. COc1ccc(C=NNC(=O)CSc2n[nH]c(=O)[nH]c2=O)cc1

4.00
3.91
4.69
4.32

###

# TARGET_SYSTEM: Group 3 secretory phospholipase A2 (Homo sapiens, UniProt Q9NZ20)
# MEASUREMENT_PROTOCOL: HGIII-sPLA2 enzyme inhibition potency – biochemical, QFRET, IC50, dose response (AID 743457)
PROPERTY_MEASURED: IC50 (µM)
One number for each entry, in µM.

Sample answers from the record:
- MOLECULE: "NS(=O)(=O)c1ccc(Nc2nc3ccccc3nc2NS(=O)(=O)c2cccc([N+](=O)[O-])c2)cc1"
  IC50 [µM]: 42.5
- MOLECULE: "CSCc1nc2sc(C(=O)Nc3nc(C)cs3)c(C)c2c(=O)[nH]1"
  IC50 [µM]: 122

State recorded IC50 for all listed molecules.
1. COC(=O)CCC(=O)OC1(C)C(=O)C2=CN(CCCOC(C)C)C(c3ccc(OC)cc3)=CC2=C(Br)C1=O (stereo not given)
2. Cc1c(Cl)cccc1N=C(S)NCCc1ccc(S(N)(=O)=O)cc1
3. Cc1ccc(O)c(-c2cc(C(=O)Nc3ccc(S(=O)(=O)Nc4nccc(C)n4)cc3)[nH]n2)c1
4. Cc1ccc(C(=O)Nc2nc(C(C)(C)C)cs2)s1

122
122
122
122

// each molecule listed below needs its IC50
1. Cc1ccc(-n2ncc3c(NNC(=O)c4ccco4)ncnc32)cc1C
2. C=CCSC(N)=NN=CC1C=C(Br)C=C([N+](=O)[O-])C1=O (stereo not given)
3. O=C1C([N+](=O)[O-])=CC(Cl)=CC1/C=N/NC(=O)C(O)(c1ccccc1)c1ccccc1 (stereo not given)
4. O=C1c2ccccc2SC1/C=N/c1cc([N+](=O)[O-])ccc1O (stereo not given)

1. 122
2. 40.6
3. 32.5
4. 122
